Biological target: MKK6 (Homo sapiens, UniProt P52564)
Construct: purchased Upstate 14-303
Sequence (P52564 1-334): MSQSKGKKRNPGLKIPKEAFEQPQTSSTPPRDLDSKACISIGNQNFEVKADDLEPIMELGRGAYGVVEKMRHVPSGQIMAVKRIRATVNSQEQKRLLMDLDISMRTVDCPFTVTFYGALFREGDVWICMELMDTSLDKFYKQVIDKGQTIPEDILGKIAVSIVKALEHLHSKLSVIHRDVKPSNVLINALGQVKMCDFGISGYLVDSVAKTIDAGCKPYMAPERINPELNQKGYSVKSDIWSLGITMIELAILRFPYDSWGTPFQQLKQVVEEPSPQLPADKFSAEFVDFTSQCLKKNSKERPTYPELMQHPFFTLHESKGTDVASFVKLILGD
Assay: MKK6 kinase assay
Type: biochemical
Conditions: read-out: MAP2K6 Inhibition (IC50)
pIC50: −log10 of the molar value. Where a name gives a salt, the structure may show the parent alone.
Assign pIC50 to each entry below.

The measured pIC50 associated with CC(C)N1CCN(C(=O)COc2ccc(-c3n[nH]c4c3C(=O)c3c(NC(=O)NN5CCOCC5)cccc3-4)cc2)CC1 reads > 6.30

The measured pIC50 associated with COCCN1CCN(Cc2ccc(-c3n[nH]c4c3C(=O)c3c(NC(=O)NN5CCOCC5)cccc3-4)cc2)CC1 [Compound B16, dihydrochloride] reads > 7.00

====

Molecular target: Rsk3 (Homo sapiens, UniProt Q15349)
Construct: purchased Upstate 14-462
Sequence (Q15349 whole entry, species assumed): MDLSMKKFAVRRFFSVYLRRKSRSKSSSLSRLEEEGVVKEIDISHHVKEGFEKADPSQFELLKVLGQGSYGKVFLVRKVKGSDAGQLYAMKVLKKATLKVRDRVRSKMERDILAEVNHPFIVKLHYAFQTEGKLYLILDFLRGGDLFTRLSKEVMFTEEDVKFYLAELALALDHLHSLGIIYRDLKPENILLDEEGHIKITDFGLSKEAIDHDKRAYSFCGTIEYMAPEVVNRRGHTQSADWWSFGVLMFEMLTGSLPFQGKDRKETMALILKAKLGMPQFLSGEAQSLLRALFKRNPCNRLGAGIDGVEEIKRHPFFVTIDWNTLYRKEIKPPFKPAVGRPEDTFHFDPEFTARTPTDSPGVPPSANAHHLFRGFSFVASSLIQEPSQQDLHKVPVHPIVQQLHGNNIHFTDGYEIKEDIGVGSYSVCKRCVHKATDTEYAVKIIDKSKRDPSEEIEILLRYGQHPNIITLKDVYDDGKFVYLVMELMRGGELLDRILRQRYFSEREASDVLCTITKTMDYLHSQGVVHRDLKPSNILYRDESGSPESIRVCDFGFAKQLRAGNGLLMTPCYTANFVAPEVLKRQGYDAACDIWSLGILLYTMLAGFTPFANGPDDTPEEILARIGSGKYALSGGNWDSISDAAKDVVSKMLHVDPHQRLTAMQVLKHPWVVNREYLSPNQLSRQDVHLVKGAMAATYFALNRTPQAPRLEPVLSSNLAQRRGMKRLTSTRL
Assay: Rsk3 kinase assay
Assay type: biochemical
Settings: kinase panel, 10 μM ATP; read-out: Ribosomal protein S6 kinase 3 (Rsk3) IC50
Procedure: • 1. 2.5× Reaction Buffer: 20 mM MOPS, pH 7.0, 1 mM EGTA. • 2. Enzyme Dilution Buffer (EDB): 20 mM MOPS, pH 7.0, 1 mM EDTA, 0.01% Brij-35, 5% glycerol, 0.1% β-mercaptoethanol, 1 mg/ml BSA. • 3. RSK3, active: Dilute to 4-40 ng/μl with EDB. Use 2.5 μl per assay point. • 4. MAPKAP Kinase 2 substrate peptide (Catalog #12-240): Prepare a 2.5 mM stock. Use 2.5 μl per assay point for a final concentration of 250 μM per assay. • 5. […] • 1. […] Read in scintillation counter. […]
pIC50: −log10 of the molar value.
Quantity: pIC50

The measured pIC50 associated with CC(C)N1CCN(C(=O)COc2ccc(-c3n[nH]c4c3C(=O)c3c(NC(=O)NN5CCOCC5)cccc3-4)cc2)CC1 reads 7.00 to 8.00

====

molecular target: JNK2α2 (Homo sapiens); construct: purchased Upstate 14-329; test: JNK2α2 kinase assay; format: biochemical; conditions: read-out: MAPK9 Inhibition (IC50)
Sequence (P45984 whole entry): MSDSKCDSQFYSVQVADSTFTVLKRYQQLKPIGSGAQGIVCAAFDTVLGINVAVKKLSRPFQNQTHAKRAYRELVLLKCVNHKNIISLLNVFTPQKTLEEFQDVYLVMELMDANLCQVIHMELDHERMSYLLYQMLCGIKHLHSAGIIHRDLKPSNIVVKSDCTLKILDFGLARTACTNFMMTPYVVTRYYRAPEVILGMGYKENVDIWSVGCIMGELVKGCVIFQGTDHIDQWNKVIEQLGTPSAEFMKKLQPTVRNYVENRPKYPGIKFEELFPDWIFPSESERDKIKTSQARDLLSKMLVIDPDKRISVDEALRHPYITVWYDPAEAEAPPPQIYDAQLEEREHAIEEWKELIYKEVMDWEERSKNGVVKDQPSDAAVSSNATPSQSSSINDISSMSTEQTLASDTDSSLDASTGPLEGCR
Structures can show the parent of a compound that is named as a salt.
Quantity: IC50

The measured IC50 associated with CC(C)N1CCN(C(=O)COc2ccc(-c3n[nH]c4c3C(=O)c3c(NC(=O)NN5CCOCC5)cccc3-4)cc2)CC1 reads < 50 nM

The measured IC50 associated with COCCN1CCN(Cc2ccc(-c3n[nH]c4c3C(=O)c3c(NC(=O)NN5CCOCC5)cccc3-4)cc2)CC1 [Compound B16, dihydrochloride] reads < 100 nM

====

test system: quiescent tumor cells; experiment: Activity on quiescent tumor cells; assay type: cell-based
Counter-ions that a name gives are not always drawn.
Quantity: pIC50
Worth noting: pIC50 values are minus log10 of concentrations stated in mol/L.

The measured pIC50 associated with COCCN1CCN(Cc2ccc(-c3n[nH]c4c3C(=O)c3c(NC(=O)NN5CCOCC5)cccc3-4)cc2)CC1 [Compound B16, dihydrochloride] reads 7.96
